Tested on: PmTbr T-box DNA-binding domain (GST fusion);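 note: 200 nM protein in PBS on universal arrays averaged over duplicate arrays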
Sequence: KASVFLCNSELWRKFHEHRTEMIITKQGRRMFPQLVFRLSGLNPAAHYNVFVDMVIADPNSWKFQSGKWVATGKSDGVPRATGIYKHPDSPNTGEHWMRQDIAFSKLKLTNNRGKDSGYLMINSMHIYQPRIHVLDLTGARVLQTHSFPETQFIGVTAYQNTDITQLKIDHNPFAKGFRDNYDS
Assay: PBM E-score of 8-mer (E-score (dimensionless, -0.5 to 0.5)); Tbr is Tbrain of the sea star Patiria miniata (Pm) or the sea urchin Strongylocentrotus purpuratus (Sp); higher = stronger binding preference
Details: the construct has about 5 more residues each side
Whole data set: some 33,000 sequences, median “E-score (dimensionless, -0.5 to 0.5)” near -0.049, cut for the highest 2% near 0.37. The entries come from a sample that favours the highest values as a whole.
Short version: PBM E-score of 8-mer at least 0.1 is Y, less is N.

Examples from the recorded data:
{"entry-sequence": "ACCTATTG", "test-system": "PmTbr T-box DNA-binding domain (GST fusion)", "category-label": "Y"}
{"entry-sequence": "GACACCGA", "test-system": "PmTbr T-box DNA-binding domain (GST fusion)", "category-label": "Y"}

Please look at the following sequence next.
Does PBM E-score of 8-mer meet or surpass 0.1 for GACCTGAC ?
N

Source listed as the supplement of paper PMC4166925.
